# Assayed System: BCL-2 (chimeric human BCL-2)
# Assay Comment: SPR binding assay, BCL-2
# Assay Context: affinity fitting, mean ± SD of three independent experiments, 25 °C
Readout Name: pKd
Answers are plain numbers, as −log10 of the molar value.

Record O=C(c1cc(-c2cc3c(cc2C(=O)N2Cc4ccccc4C[C@H]2CN2CCOCC2)OCO3)n2c1CCCC2)N(c1ccccc1)c1ccc(O)cc1 [S55746] . Reported pKd: 8.22

* * *

# System: A549 cells (control)
# Assay Comment: Cell viability assay (CellTiter-Glo), normal A549 (control)
# Assay type: cell-based
# Assay Context: 48 h, CellTiter-Glo, n = 6; read-out: IC50 A549 control (original cells)
Readout Name: IC50 (µM)
One number for each entry, in µM.

Field IC50 (entry "O=C(c1cc(-c2cc3c(cc2C(=O)N2Cc4ccccc4C[C@H]2CN2CCOCC2)OCO3)n2c1CCCC2)N(c1ccccc1)c1ccc(O)cc1" ) reads 74.1
